# Study system: human H1 receptor (Homo sapiens, UniProt P35367)
# Construct: purchased Euroscreen SA, Brussels, Belgium ES-390-M; host or cells: CHO-K1
# Sequence (P35367 whole entry): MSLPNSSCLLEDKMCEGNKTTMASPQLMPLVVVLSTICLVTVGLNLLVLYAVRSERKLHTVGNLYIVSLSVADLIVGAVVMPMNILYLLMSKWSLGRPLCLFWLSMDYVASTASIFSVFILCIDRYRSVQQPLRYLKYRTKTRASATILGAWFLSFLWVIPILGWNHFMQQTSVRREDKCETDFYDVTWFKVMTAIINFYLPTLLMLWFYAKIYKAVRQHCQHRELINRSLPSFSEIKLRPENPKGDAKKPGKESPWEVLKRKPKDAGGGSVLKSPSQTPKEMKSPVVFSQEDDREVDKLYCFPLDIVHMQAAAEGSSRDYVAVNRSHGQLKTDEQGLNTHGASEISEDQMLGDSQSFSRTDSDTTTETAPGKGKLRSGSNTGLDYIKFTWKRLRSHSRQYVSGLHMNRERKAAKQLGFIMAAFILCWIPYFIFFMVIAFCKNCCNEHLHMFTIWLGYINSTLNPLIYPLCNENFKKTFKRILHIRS
# Assay protocol: Histamine H1 receptor binding, competition displacement of [3H]-pyrilamine
# Condition description: competition displacement of 1 nM [3H]-pyrlamine; 2 μg membranes from recombinant CHO-K1 cells expressing the human H1 receptor; 1 hour at room temperature; read-out: H1 pKi (converted)
Where a name gives a salt, the structure may show the parent alone.
Quantity name: Ki (nM)

Example entries and their recorded answers appear below.
>>> result("O=C(O)[C@H](CCc1ccccc1)N1CCC(CN2CCC(Oc3ccc(Cl)c(Cl)c3)CC2)CC1 [Example 66]")
63.1
>>> result("Cc1c(OC2CCN(CC3CCN([C@@H](Cc4ccccc4C#N)C(=O)O)CC3)CC2)ccc(Cl)c1Cl")
12.6
>>> result("O=C(O)[C@H](CCc1ccccc1)N1CCC(CN2CCC(Oc3ccc(Cl)c(Cl)c3)CC2)CC1 [Example 78, dihydrochloride]")
126
>>> result("Cn1cncc1C[C@@H](C(=O)O)N1CCC(CN2CCC(Oc3ccc(Cl)c(Cl)c3)CC2)CC1")
398
>>> result("Cc1c(Cl)ccc(OC2CCN(CC3CCN([C@@H](Cc4ccccc4)C(=O)O)CC3)CC2)c1Cl [Example 71, dihydrochloride salt]")
158

1 = Cc1c(OC2CCN(CC3CCN([C@@H](Cc4cccc(C#N)c4)C(=O)O)CC3)CC2)ccc(Cl)c1Cl
2 = C[C@@H](c1ccccc1)[C@@H](C(=O)O)N1CCC(CN2CCC(Oc3ccc(Cl)c(Cl)c3)CC2)CC1
3 = Cc1c(Cl)ccc(OC2CCN(CC3CCN([C@@H](Cc4ccccc4)C(=O)O)CC3)CC2)c1Cl [Example 37]
# rank_down: sort by Ki, max first # output: labels, in the requested order
2, 3, 1
(2: 63.1 nM, 3: 31.6 nM, 1: 20 nM)

P = O=C(O)[C@H](Cc1cccs1)N1CCC(CN2CCC(Oc3ccc(Cl)c(Cl)c3)CC2)CC1
Q = O=C(O)[C@H]([C@H](O)c1ccccc1)N1CCC(CN2CCC(Oc3ccc(Cl)c(Cl)c3)CC2)CC1
Min Ki? P | Q Lab note: record the label of whichever item you select.
Q
(Q: 126 nM, P: 251 nM)

Reference for the values: patent US7495013B2
